- Test system: Fibroblast
- Run description: Multiplex assay against human fibroblast
- Assay type: toxicity, cell-based
- Condition description: 48 h, 10 µM, compound concentration 10 uM, replicate 2
Kindly supply the reported Population Mitochondria Different-Phenotype (%) values for the records listed here.
One number for each entry, in %.

Consider the reported Population Mitochondria Different-Phenotype (%) for these compounds:
> print(dat)
                                   compound  numeric.result
1  O=C(Nc1ccc(-n2nc(-c3cccnc3)cc2C(F)(F)F)cn1)c1ccc(-c2ccccc2)c(F)c1 [BI 2049]               1
2  O=C1NC(=O)C(c2cnc3ccccn23)=C1c1cn2c3c(cc(F)cc13)CN(C(=O)N1CCCCC1)CC2 [LY-2090314]              85
3  CCN1CCN(Cc2ccc(Nc3ncc(F)c(-c4cc(F)c5nc(C)n(C(C)C)c5c4)n3)nc2)CC1.CS(=O)(=O)O              38
4  O=C1N/C(=N/c2ccccc2F)S/C1=C\c1ccc(C(=O)O)cc1               0
5  COc1cc(N2CCN(C)CC2)ccc1Nc1ncc2c(n1)N(C)c1ccccc1C(=O)N2C               8
6  CCOC(=O)c1c(C)[nH]c2ccc3c(c12)CN1CCc2cc(OC)ccc2C1O3 (centres undefined)              74

List Population Mitochondria Different-Phenotype (%) for every entry below, keeping the order given.
1. Cc1cn(-c2cc(NC(=O)c3ccc(C)c(Nc4nccc(-c5cccnc5)n4)c3)cc(C(F)(F)F)c2)cn1 [NILOTINIB]
2. O=C(Cc1ccc(-c2ccc(OCCN3CCOCC3)cc2)cn1)NCc1ccccc1 [TIRBANIBULIN]
3. S=C(NCCCc1c[nH]cn1)NCCCN(Cc1ccc(Cl)c(Cl)c1)c1ccc(Br)cn1
4. CCc1cccc(CC)c1NC(=O)c1nn(C)c2c1CCc1cnc(Nc3ccc(C(=O)NC4CCN(C)CC4)cc3OC(F)(F)F)nc1-2
5. CCOc1cc(C(=O)N2CCC(N3CCN(C)CC3)CC2)ccc1Nc1ncc2c(n1)N(C1CCCC1)c1ccccc1C(=O)N2C
6. CN1CCC(=C2c3ccccc3CC(=O)c3sccc32)CC1.O=C(O)/C=C/C(=O)O [KETOTIFEN FUMARATE]

-- reply
9
5
0
10
78
5

List Population Mitochondria Different-Phenotype (%) for every entry below, keeping the order given.
1. O=C(Nc1ccc(Cl)cc1)Nc1cccc(-c2cccc(N3CCCC3)n2)c1
2. CNc1cc(Oc2cc(C(=O)Nc3cc(N4CCN(C)CC4)cc(C(F)(F)F)c3)ccc2C)ncn1
3. CN(C)C(=O)C(CCN1CCC(O)(c2ccc(Cl)cc2)CC1)(c1ccccc1)c1ccccc1.Cl [LOPERAMIDE HYDROCHLORIDE]

-- reply
[18, 80, 85]

List Population Mitochondria Different-Phenotype (%) for every entry below, keeping the order given.
1. Cl.O=C(c1ccc(Nc2nccc(-c3cc4ccccc4s3)n2)cc1)N1CCC(N2CCCC2)CC1
2. O=C(Nc1ccc(-c2ccnc(Nc3ccc(N4CCOCC4)cc3)n2)cc1)[C@@H]1CCCN1

-- reply
12
3

The reported measurements were obtained from ChEMBL document CHEMBL4689842.
